Entry source: ChEMBL document CHEMBL1221194

molecular target: Glyceraldehyde-3-phosphate dehydrogenase (Oryctolagus cuniculus)
Sequence (P46406 whole entry): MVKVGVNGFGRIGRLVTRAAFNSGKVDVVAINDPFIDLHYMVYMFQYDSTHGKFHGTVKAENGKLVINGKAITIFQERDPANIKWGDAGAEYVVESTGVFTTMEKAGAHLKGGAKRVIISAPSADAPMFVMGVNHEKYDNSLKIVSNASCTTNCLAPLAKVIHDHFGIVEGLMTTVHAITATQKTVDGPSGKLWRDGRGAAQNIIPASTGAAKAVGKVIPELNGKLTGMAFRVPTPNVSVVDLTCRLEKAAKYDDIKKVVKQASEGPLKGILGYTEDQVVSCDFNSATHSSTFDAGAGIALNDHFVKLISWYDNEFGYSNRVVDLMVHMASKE
pIC50: −log10 of the molar value.

>  <query_smiles>
O=C(NCCOCCOCCNc1nc(NCCc2ccc(O)c(O)c2)nc(Nc2ccccc2)n1)c1ccccc1

>  <target_system>
Glyceraldehyde-3-phosphate dehydrogenase (Oryctolagus cuniculus)

>  <pIC50>
4.82

$$$$

----------
target: Glyceraldehyde-3-phosphate dehydrogenase (Homo sapiens, UniProt P04406)
Sequence (P04406 whole entry): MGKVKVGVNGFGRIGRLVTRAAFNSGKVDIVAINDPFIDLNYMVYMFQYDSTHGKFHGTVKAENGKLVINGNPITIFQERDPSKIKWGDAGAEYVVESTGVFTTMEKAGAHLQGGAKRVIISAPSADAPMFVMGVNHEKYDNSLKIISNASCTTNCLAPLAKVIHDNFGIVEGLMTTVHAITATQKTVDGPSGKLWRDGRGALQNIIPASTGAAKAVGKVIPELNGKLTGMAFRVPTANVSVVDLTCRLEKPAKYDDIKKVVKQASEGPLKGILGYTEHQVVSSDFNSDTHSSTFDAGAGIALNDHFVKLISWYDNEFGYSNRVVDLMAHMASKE
recorded_endpoint: IC50 (µM)

>  <query_smiles>
NCCc1cc(O)c(O)cc1O

>  <obs_value>
8

$$$$
